The origin of these recorded values is patent US20260258031A1.

assay: Kinetic solubility of Fumarate Form A Ethyl Acetate Solvate, solvent aliquot addition; assay type: physicochemical; details: organic solvent or mixture, thermodynamic from solid; MTBE, ambient temperature
PROPERTY LABEL: solubility (µg/mL)
Kindly answer with a numeric value in µg/mL, unit omitted.

Look up solubility for this compound: `CCCN1CC(Oc2ccc([C@@H]3c4[nH]c5ccccc5c4C[C@@H](C)N3CC(C)(C)F)cc2)C1.O=C(O)/C=C/C(=O)O`
2000

###

experiment: Kinetic solubility of Fumarate Form A Ethyl Acetate Solvate, solvent aliquot addition; type: physicochemical; conditions: organic solvent or mixture, thermodynamic from solid; IPA, ambient temperature
PROPERTY LABEL: solubility (mg/mL)
Kindly answer with a numeric value in mg/mL, unit omitted.

Look up solubility for this compound: `CCCN1CC(Oc2ccc([C@@H]3c4[nH]c5ccccc5c4C[C@@H](C)N3CC(C)(C)F)cc2)C1.O=C(O)/C=C/C(=O)O`
20

###

assay: Kinetic solubility of Fumarate Form A Ethyl Acetate Solvate, solvent aliquot addition; format: physicochemical; settings: organic solvent or mixture, thermodynamic from solid; Anisole, ambient temperature
PROPERTY LABEL: solubility

Look up solubility for this compound: `CCCN1CC(Oc2ccc([C@@H]3c4[nH]c5ccccc5c4C[C@@H](C)N3CC(C)(C)F)cc2)C1.O=C(O)/C=C/C(=O)O`
< 1000 µg/mL

###

assay: Kinetic solubility of Fumarate Form A Ethyl Acetate Solvate, solvent aliquot addition; type: physicochemical; details: organic solvent or mixture, thermodynamic from solid; t-BuOAc, ambient temperature; re-precipitated after first aliquot
PROPERTY LABEL: solubility (µg/mL)
Kindly answer with a numeric value in µg/mL, unit omitted.

Look up solubility for this compound: `CCCN1CC(Oc2ccc([C@@H]3c4[nH]c5ccccc5c4C[C@@H](C)N3CC(C)(C)F)cc2)C1.O=C(O)/C=C/C(=O)O`
1000

###

assay: Solubility in solvents, dynamic method; assay type: physicochemical; settings: organic solvent or mixture, thermodynamic from solid; IPA/heptane (1/1), 25° C., dynamic method
PROPERTY LABEL: solubility at 15 min

Look up solubility at 15 min for this compound: CCCN1CC(Oc2ccc([C@@H]3c4[nH]c5ccccc5c4C[C@@H](C)N3CC(C)(C)F)cc2)C1.O=C(O)/C=C/C(=O)O [Compound 1 Fumarate Form E]
~2.35 mg/mL

###

assay: Kinetic solubility of Fumarate Form A Ethyl Acetate Solvate, solvent aliquot addition; format: physicochemical; conditions: organic solvent or mixture, thermodynamic from solid; DCE/EtOH (96/4), ambient temperature
PROPERTY LABEL: solubility

Look up solubility for this compound: `CCCN1CC(Oc2ccc([C@@H]3c4[nH]c5ccccc5c4C[C@@H](C)N3CC(C)(C)F)cc2)C1.O=C(O)/C=C/C(=O)O`
≥ 8000 µg/mL
